Tested on: A549 cells
Assay: Cytotoxicity assay (MTT)
Assay type: cell-based, human
Conditions: 24 h
From the text: Then supernatant was transferred to a 96-well-plate. […] The experiment was repeated at least three times. The error bars indicate the standard deviation.
measurement.type: IC50

[ask] I have this compound here, CC(C)CC(NC(=O)CNC(=O)C(C)NC(=O)c1ccc(S(=O)(=O)NCC2OC(C)C(O)C(O)C2O)cc1)C(=O)NC(C)C(=O)NC1CCN(c2cc3c(cc2F)c(=O)c(C(=O)O)cn3C2CC2)C1 (stereo not shown) , and I need its recorded IC50.
[reply] > 50 µM

---

Biological target: LecA (Pseudomonas aeruginosa, UniProt Q05097)
Construct: made in house
Sequence (Q05097 whole entry): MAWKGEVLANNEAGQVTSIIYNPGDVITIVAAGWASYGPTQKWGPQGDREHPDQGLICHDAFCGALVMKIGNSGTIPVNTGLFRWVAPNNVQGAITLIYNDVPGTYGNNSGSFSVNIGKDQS
Experiment: Competitive binding assay based on fluorescence polarization with LecA
measurement.type: IC50 (µM)
Give the value, in units of µM, as a plain number.

[ask] I have this molecule here, O=[N+]([O-])c1ccc(S[C@@H]2O[C@H](CO)[C@H](O)[C@H](O)[C@H]2O)cc1 [pNP-β-D-Gal, p-nitrophenyl-β-thio-galactoside, reference compound] , and I need its recorded IC50.
[reply] 61.9
